// reported combination Emax per item
# Tested on: NUGC-4 (Gastric Carcinoma)
# test-details: combination Emax (second highest fraction inhibited in the dose matrix, 72 h); higher = more inhibition; extreme values may be limits of the assay
assay-metric: combination Emax

• CCN(CCO)CCCOc1ccc2c(Nc3cc(CC(=O)Nc4cccc(F)c4)[nH]n3)ncnc2c1 [AZD2811] + C[C@@H]1COCCN1C2=NC(=NC(=C2)C3(CC3)[S@](=N)(=O)C)C4=C5C=CNC5=NC=C4 [AZD6738] (first compound max 1 µM, 7x7, partner max 10 µM) = 0.547
• CC1(C)CCC(CN2CCN(c3ccc(C(=O)NS(=O)(=O)c4ccc(NCC5CCOCC5)c([N+](=O)[O-])c4)c(Oc4cnc5[nH]ccc5c4)c3)CC2)=C(c2ccc(Cl)cc2)C1 [Venetoclax] + C[C@@H](Nc1cc(F)cc(F)c1)c1cc(C(=O)N(C)C)cc2c(=O)cc(N3CCOCC3)oc12 [AZD8186] (first compound max 1 µM, 7x7, partner max 3 µM) = 0.287
